Source: patent US20170210813A1

# subject of test: T1, Macaca fascicularis PDGFRb.mmh (Macaca fascicularis)
# T1 construct: Soluble monomeric construct; also called mfPDGFRb.mmh
# T1 chain: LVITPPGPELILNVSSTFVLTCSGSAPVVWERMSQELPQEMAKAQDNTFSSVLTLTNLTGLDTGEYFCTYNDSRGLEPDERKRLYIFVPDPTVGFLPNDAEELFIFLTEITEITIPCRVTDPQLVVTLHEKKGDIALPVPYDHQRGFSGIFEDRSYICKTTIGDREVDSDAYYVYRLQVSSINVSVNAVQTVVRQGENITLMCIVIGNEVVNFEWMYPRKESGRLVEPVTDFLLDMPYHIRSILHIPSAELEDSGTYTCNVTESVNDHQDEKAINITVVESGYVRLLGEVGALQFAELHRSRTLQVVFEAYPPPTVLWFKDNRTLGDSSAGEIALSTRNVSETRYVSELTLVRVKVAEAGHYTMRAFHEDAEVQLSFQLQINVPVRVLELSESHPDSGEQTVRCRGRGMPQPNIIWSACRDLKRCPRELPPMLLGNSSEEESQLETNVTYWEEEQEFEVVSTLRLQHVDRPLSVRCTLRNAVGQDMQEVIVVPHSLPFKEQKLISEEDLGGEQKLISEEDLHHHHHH
# protocol text: SPR, mAb captured, 25 C
measurement kind: kon (M⁻¹ s⁻¹)
Quick reminder: number only, in M⁻¹ s⁻¹, skip the unit.

See these solved cases before continuing.
binder	measurement kind	u	recorded value
H4H3106S (antibody, human IgG4, V domains shown, human IgG4 Fc (H4H prefix)) VH: QVQLVESGGGLVQPGGSLRLSCAASGFTFSSYWMSWVRQVPGKGLEWVANMNQDGTEKYYVDSVKGRLTISRENVKNSLYLQMNGLRAEDTAVYYCARDLVPPRQGDYYYYFGMDVWGHGTMVTVSS VL: AIQMTQSPSTLSASVGDIVTITCRASQSISDWLAWYQQKPGKAPKLLIFKASSLESGVPSRFSGSGSGTDFTLTISSLQPDDFATYYCQQYNSYSRTFGQGTKVDIK	kon	M⁻¹ s⁻¹	190000
H4H3102S (antibody, human IgG4, V domains shown, human IgG4 Fc (H4H prefix)) VH: EVQLVESGGDLVHPGRSLRLSCVASGFTFDDYTMHWVRQAPGKGLEWVSAISWNGDNINYAGSVKGRFTISRDNAKNSLYLEMNSLRVEDTAFYYCAKGRGFSFGFNYLGQGTMVTVSS VL: AIRMTQSPSSLSASVGDRVTITCRASQDISNYLAWFQQQPGKAPKSLIYATSSLNSGVPSKFSGSGSGTDFTLTISSLQPEDFATYYCQQYKSYPLTFGGGTKVEIK	kon	M⁻¹ s⁻¹	283000
H4H3096S (antibody, human IgG4, V domains shown, human IgG4 Fc (H4H prefix)) VH: EVQLVQSGGSLVQPGGSLRLSCTASGFTFSSYWMSWVRQAPGKGLEWVANIQQDESEKYYVDSVKGRFSISRDNAKKSLYLQMNSLRAEDTAVYFCARDLVPPRQGDYYHYFGMDVWGQGTLVTVSS VL: AIRMTQSPSTLSASVGDRVTITCRASQSISDWLAWYQQKPGKAPNLLIYKASSLESGVPSRFSGSGSGTEFTLTISGLQPDDFATYYCQQYNSYSRTFGQGTKLEIKR	kon	M⁻¹ s⁻¹	182000
H4H3095S (antibody, human IgG4, V domains shown, human IgG4 Fc (H4H prefix)) VH: EVQLVESGGGLVQPGGSLRLSCGASGFTFSSYWMTWVRQAPGKGLEWVGNINQDGSEKYSVDSVKGRFTISRDNAKNSLYLQMNRVRAEDTAVYYCSRDLVPPRQGDNYYYFGMDVWGLGTTVTVSS VL: DIQMTQSPSTLSASVGDRVIITCRASQNINNWLAWYQQQPGKAPKLLIYEASSLESGVPSRFSGSGSGTEFTLTIGSLQPDDFATYYCQHYNSYSRTFGQGTKVDIK	kon	M⁻¹ s⁻¹	207000
H4H3105S (antibody, human IgG4, V domains shown, human IgG4 Fc (H4H prefix)) VH: QVQLVESGGSLVQPGGSLRLACTASGFTFSSYWMSWVRQAPGKGLEWVANIQQDENEKYYVDSVKGRFSISRDNAKKSLYLQMNSLRVEDTAVYFCARDLVPPRQGDYYHYFGMDVWGQGTTVTVSS VL: DIQLTQSPSTLSASVGDRVTITCRASQSISDWLAWYQQKPGKAPNLLIYKASTLESGVPSRFSGSGSGTEFTLTISSLQPDDFATYYCQQYNSYSRTFGQGTKVEIK	kon	M⁻¹ s⁻¹	180000

From here, focus on the item given below.
Sample H4H3094P (antibody, human IgG4, V domains shown, also called H4H3394P) VH: EVQLVESGGGLVQPGGSLRLSCAASGFTFSSYWMSWVRQAPGKGLEWVANMNQDGSETHYVDSVKGRLSISRDNAKKSLFLHMNSLRAEDTAVYFCARDLVPPRQDDYYYYFGMDVWGHGTTVTVSS VL: DIQMTQSPSTLSASVGDRVTITCRASQSISDWLAWYQQKPGKAPKLLIFKASTLESGVPSRFSGSGSGTEFTLTISSLQPDDFATYYCQQYNSYSRTFGQGTKVEIK — what was its kon? 177000
